Where do the numbers come from? From ChEMBL document CHEMBL5727878.

target: Apelin receptor (Homo sapiens); experiment: GTPγS Binding: The human APJ receptor was cloned by polymerase chain reaction and the gene encoding the receptor was subcloned in pFLAG-CMV-3 expression vector (Sigma, Saint Louis, Mo. USA) in-house at Amgen. A GTPγS binding assay was performed on membranes prepared from CHO cells stably expressing human APJ receptor. The optimum experimental conditions for the concentrations of GDP, MgCl2, and NaCl in the assay buffer were initially determined. The assay was performed in assay buffer [20 mM HEPES, pH 7.5, 5 mM MgCl2, and 0.1% (w/v) BSA with 200 mM NaCl, 3 μM GDP] and membranes expressing human APJ receptor/well along with WGA PS beads. The reaction was initiated by addition of 0.2 nM [35S]GTPγS in the absence or presence of various ligands and incubated at RT for 90 min. Nonspecific binding was determined in the presence of 100 μM GTPγS and was always less than 0.2% of total binding.
reportedProperty: pEC50
Remember, pEC50 is on a log scale: it is -log10 of the molar concentration.

{"columns": ["compound", "reportedProperty", "dataValue"],
 "data": [
  ["COc1cccc(OC)c1-n1c(NS(=O)(=O)C[C@H](O)c2ccc(Cl)cc2S(C)(=O)=O)nnc1-c1ccc(C)o1 (single isomer, unassigned)", "pEC50", 10.05]
]}

Incoming: Entry COc1cccc(OC)c1-n1c(NS(=O)(=O)C[C@@H](C)c2ncc(C)cn2)nnc1-c1ccco1 (single isomer, unassigned) : reported pEC50 = ?
Outgoing: 8.17

Incoming: Using the record for COc1cccc(OC)c1-n1c(NS(=O)(=O)[C@@H]2C[C@@H](c3ccc(F)cc3)CN(C(C)=O)C2)nnc1-c1ccc(C)o1 (single isomer, unassigned) , report its pEC50.
Outgoing: 9.12

Incoming: Find the recorded pEC50 belonging to COc1cccc(OC)c1-n1c(NS(=O)(=O)[C@@H]2CCCC[C@H]2c2ncc(F)cn2)nnc1-c1ccco1 (single isomer, unassigned) and report it.
Outgoing: 7.52

Incoming: Sample COc1cccc(OC)c1-n1c(NS(=O)(=O)C[C@@](C)(O)c2ncc(C#N)cn2)nnc1-c1ccc(C)o1 (mixture of isomers) — what was its pEC50?
Outgoing: 9.19

Incoming: Data request, read-out pEC50, for Cc1ccc(-c2nnc(NS(=O)(=O)[C@@H](C)Cc3ncc(F)cn3)n2C2CCCC2)o1 (mixture of isomers)
Outgoing: 6.57

---

Biological target: Apelin receptor (Homo sapiens)
Sequence (P35414 whole entry): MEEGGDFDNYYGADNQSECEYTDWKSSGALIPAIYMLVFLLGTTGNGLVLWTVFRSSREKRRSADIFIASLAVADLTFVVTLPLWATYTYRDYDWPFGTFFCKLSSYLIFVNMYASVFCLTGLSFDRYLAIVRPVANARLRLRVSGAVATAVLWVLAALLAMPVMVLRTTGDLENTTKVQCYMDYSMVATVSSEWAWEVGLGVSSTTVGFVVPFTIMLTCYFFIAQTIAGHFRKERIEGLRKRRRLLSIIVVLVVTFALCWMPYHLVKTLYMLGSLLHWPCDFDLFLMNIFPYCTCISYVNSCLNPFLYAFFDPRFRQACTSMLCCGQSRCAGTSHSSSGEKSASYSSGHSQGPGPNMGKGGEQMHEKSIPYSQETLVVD
Assay: GTPγS Binding: The human APJ receptor was cloned by polymerase chain reaction and the gene encoding the receptor was subcloned in pFLAG-CMV-3 expression vector (Sigma, Saint Louis, Mo. USA) in-house at Amgen. A GTPγS binding assay was performed on membranes prepared from CHO cells stably expressing human APJ receptor. The optimum experimental conditions for the concentrations of GDP, MgCl2, and NaCl in the assay buffer were initially determined. The assay was performed in assay buffer [20 mM HEPES, pH 7.5, 5 mM MgCl2, and 0.1% (w/v) BSA with 200 mM NaCl, 3 μM GDP] and membranes expressing human APJ receptor/well along with WGA PS beads. The reaction was initiated by addition of 0.2 nM [35S]GTPγS in the absence or presence of various ligands and incubated at RT for 90 min. Nonspecific binding was determined in the presence of 100 μM GTPγS and was always less than 0.2% of total binding.
Measured pEC50 of individual entries
Reminder that pEC50 means the negative base-10 logarithm of the concentration expressed in mol/L.

The following compounds have reported results that may help.
{"columns": ["compound", "pEC50"],
 "data": [
  ["COCn1cnc2c(C[C@H](C)S(=O)(=O)Nc3nnc(-c4ccco4)n3-c3c(OC)cccc3OC)ncc(F)c21 (mixture of isomers)", 9.11],
  ["COc1cccc(OC)c1-n1c(NS(=O)(=O)[C@H](C)[C@@H](O)c2cc3ccccn3n2)nnc1-c1ccc(C)o1 (mixture of isomers)", 9.19],
  ["COc1cccc(OC)c1-n1c(NS(=O)(=O)[C@@H](C)[C@H](O)c2cscn2)nnc1-c1ccc(C)o1 (mixture of isomers)", 8.92],
  ["COc1cccc(OC)c1-n1c(NS(=O)(=O)[C@H](C)[C@](C)(O)c2ncc(F)cn2)nnc1-c1ccc(C)o1 (single isomer, unassigned)", 9.24]
]}

Now let's try a different one.
Incoming: Item under review: COc1cccc(OC)c1-n1c(NS(=O)(=O)[C@@H](C)[C@@H](O)c2cnc3ccccn23)nnc1-c1ccc(C)o1 (single isomer, unassigned) . Reported pEC50?
Outgoing: 9.02
